Biological target: T1, naked peptide 1b MEDYVNFNFTDFYCEKNNVRQFAS (human)
T1 construct: also called region amino acids 25 to 48
T1 peptide: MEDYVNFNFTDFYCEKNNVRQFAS
Assay: ELISA naked 24-mer; repII
# Lookup of reported OD450 keyed by entry
Number in OD, nothing else.

Examples with answers:
INPUT: Supply reported OD450 belonging to this binder: Comparative antibody 2 (Comp-2) scFv, 243LO326 (VH SEQ ID NO: 51 and VL SEQ ID NO: 52 of WO 2022/195028 A2), His-tagged (scFv) scFv: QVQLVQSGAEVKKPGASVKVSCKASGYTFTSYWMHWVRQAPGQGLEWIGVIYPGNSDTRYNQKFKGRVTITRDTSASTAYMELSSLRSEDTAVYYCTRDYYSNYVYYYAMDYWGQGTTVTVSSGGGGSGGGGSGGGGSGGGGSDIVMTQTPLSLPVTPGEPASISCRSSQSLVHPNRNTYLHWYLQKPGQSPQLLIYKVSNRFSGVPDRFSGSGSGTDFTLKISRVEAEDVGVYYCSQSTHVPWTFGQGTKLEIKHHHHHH
OUTPUT: 2.01

INPUT: Using known records, supply OD450 for Comparative antibody 3 (Comp-3) scFv, SR_92R (Somovilla-Crespo et al. 2018), His-tagged (scFv) scFv: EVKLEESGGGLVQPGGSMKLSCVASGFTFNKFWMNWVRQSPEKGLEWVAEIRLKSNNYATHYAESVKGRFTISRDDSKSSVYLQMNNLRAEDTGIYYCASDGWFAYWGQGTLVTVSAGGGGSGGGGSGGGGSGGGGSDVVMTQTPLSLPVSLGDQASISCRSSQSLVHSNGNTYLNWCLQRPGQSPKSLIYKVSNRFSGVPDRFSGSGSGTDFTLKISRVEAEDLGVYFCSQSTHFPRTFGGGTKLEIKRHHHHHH
OUTPUT: 0.09

INPUT: Assign OD450 to the following record: CCR9_HUM2 scFv (humanized anti-CCR9 scFv, SEQ ID NO: 17 with C-terminal 6xHis tag) (scFv) scFv: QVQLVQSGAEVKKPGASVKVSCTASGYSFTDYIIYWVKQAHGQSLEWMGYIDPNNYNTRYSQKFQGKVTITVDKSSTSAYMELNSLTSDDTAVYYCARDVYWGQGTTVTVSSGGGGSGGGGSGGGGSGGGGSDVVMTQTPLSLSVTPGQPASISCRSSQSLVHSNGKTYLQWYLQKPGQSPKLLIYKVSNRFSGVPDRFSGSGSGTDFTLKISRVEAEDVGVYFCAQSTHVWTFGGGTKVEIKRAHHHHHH
OUTPUT: 2.24

Would you kindly look at the next entry?
INPUT: Output OD450 of Comparative antibody 1 (Comp-1) scFv, SEQ ID NO: 10 from WO2023/037125 A1, His-tagged (scFv) scFv: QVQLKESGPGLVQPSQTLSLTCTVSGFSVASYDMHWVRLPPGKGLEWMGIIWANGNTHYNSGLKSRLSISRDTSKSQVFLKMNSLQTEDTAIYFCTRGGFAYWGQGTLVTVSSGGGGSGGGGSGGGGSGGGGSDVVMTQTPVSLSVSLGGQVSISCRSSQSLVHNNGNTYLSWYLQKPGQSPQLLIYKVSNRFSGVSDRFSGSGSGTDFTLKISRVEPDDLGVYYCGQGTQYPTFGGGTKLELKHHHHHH
OUTPUT: 0.06
